# deprotection time of caged G6P(1-OMe) per entry
- assay_details: In vitro deprotection under UV light and sunlight, followed by mass spectrometry/TLC and P NMR
- Type: physicochemical
- condition_description: 8 W/365 nm
# value in h; strip the unit string

For reference, reported deprotection time of caged G6P(1-OMe) for CO[C@H]1O[C@H](COP(=O)(OCc2ccccc2[N+](=O)[O-])OCc2ccccc2[N+](=O)[O-])[C@@H](O)[C@H](O)[C@H]1O [NB-G6P(1-OMe)] stands at 8

For reference, reported deprotection time of caged G6P(1-OMe) for COC1OC(COP(=O)(OC(C)c2ccccc2[N+](=O)[O-])OC(C)c2ccccc2[N+](=O)[O-])C(O)C(O)C1O (mixture of isomers) [NPE-G6P(1-OMe)] stands at 2

For reference, reported deprotection time of caged G6P(1-OMe) for COc1cc(COP(=O)(OCc2cc(OC)c(OC)cc2[N+](=O)[O-])OC[C@H]2O[C@H](OC)[C@H](O)[C@@H](O)[C@@H]2O)c([N+](=O)[O-])cc1OC [DMNB-G6P(1-OMe)] stands at 10

Now look at this one.
For reference, reported deprotection time of caged G6P(1-OMe) for COc1cc(COP(=O)(O)OC[C@H]2O[C@H](OC)[C@H](O)[C@@H](O)[C@@H]2O)c([N+](=O)[O-])cc1OC [Mono-DMNB-G6P(1-OMe)] stands at 10
